Data origin, for the record: patent EP0437336B1

In this section we review reported LC50 BW 96 hrs values for a set of molecules.
Test system: Boll Weevil
method: Biological Method D: Foliar Insecticidal Activity Test, boll weevil test
Type: in vivo, Anthonomous grandis
experimental-parameters: Boll Weevil; 96 hrs; compounds a-r
Response body: numeric value in ppm, unit text excluded.

* CCOP(=O)(SC(C)CC)N(C)N(C)P(=S)(OC)OC (stereo not shown) | 740
* CCOP(=O)(NN(C)P(=S)(OC)OC)SC(C)CC (stereo not shown) | 740
* CCOP(=S)(OCC)N(C)N(C)P(=S)(OCC)OC(C)C (stereo not shown) | 150

Okay, next one:
Sample `CCOP(=S)(NN(C(=O)OC)P(=S)(OCC)OCC)OCC` ; LC50 BW 96 hrs observed: 740
